Taken from patent US11384075B2.

- measured-target: human FGFR3 V555M enzyme (cytoplasmic domain carrying V555M mutation) (Homo sapiens, UniProt P22607, V555M)
- Construct: human FGFR3 V555M enzyme (cytoplasmic domain carrying V555M mutation, from Carna Biosciences)
- Sequence (P22607 397-806 V555M limits assumed): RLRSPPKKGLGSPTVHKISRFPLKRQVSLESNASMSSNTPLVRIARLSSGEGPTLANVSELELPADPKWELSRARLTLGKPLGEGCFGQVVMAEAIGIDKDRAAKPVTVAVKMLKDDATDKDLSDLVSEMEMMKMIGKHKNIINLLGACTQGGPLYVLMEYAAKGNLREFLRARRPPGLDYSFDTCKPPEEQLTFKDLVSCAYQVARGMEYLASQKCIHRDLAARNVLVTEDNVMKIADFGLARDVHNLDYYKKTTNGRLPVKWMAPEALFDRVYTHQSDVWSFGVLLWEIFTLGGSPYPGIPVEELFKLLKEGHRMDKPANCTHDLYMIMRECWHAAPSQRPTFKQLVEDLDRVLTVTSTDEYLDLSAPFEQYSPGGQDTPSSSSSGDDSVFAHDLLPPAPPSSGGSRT
- experiment-summary: FGFR3 V555M mobility shift assay (enzymatic assay)
- experimental-conditions: 30 μM ATP, 45 minutes at 30° C., Caliper EZ reader II
result-type: IC50

molecule	result-type	measured-value
C[C@H](Nc1c(-c2nc3ccc(N4CCOC(C(=O)O)C4)cc3[nH]2)c(=O)[nH]c2ccccc12)c1ccccn1 (mixture of isomers) [Compound 60]	IC50	0.603 nM
CC(Nc1c(-c2nc3ccc(C4CCOCC4)cc3[nH]2)c(=O)[nH]c2ccccc12)c1ncccn1 (single isomer, unassigned) [Compound 29a]	IC50	0.15 nM
C[C@H](Nc1c(-c2nc3ccc(N4CCOCC4)cc3[nH]2)c(=O)[nH]c2ccccc12)c1ccccn1 [Compound 55]	IC50	0.538 nM
CC(Nc1c(-c2nc3ccc(N4CCN(CCC(F)(F)F)CC4)cc3[nH]2)c(=O)[nH]c2ccccc12)c1ncccn1 (single isomer, unassigned) [Compound 41a]	IC50	0.485 nM
CC(Nc1c(-c2nc3ccc(N4CCOCC4)cc3[nH]2)c(=O)[nH]c2ccccc12)c1cscn1 (single isomer, unassigned) [Compound 52a]	IC50	0.208 nM
CC(C)C(Nc1c(-c2nc3ccc(N4CCOCC4)cc3[nH]2)c(=O)[nH]c2ccccc12)c1ncccn1 (single isomer, unassigned) [Compound 32a]	IC50	0.171 nM
C[C@H](Nc1c(-c2nc3ccc(N4CCN(C)C(=O)C4)cc3[nH]2)c(=O)[nH]c2ccccc12)c1ccccn1 [Compound 15]	IC50	0.351 nM
CC(Nc1c(-c2nc3ccc(-c4cnn(C)c4)cc3[nH]2)c(=O)[nH]c2ccccc12)c1ncccn1 (single isomer, unassigned) [Compound 53a]	IC50	0.186 nM
CC(Nc1c(-c2nc3ccc(N4CCN(CCC(F)(F)F)CC4)cc3[nH]2)c(=O)[nH]c2ccccc12)c1ncccn1 (single isomer, unassigned) [Compound 41b]	IC50	19.4 nM
C[C@@H]1CN(c2ccc3nc(-c4c(N[C@@H](C)c5ncccn5)c5ccccc5[nH]c4=O)[nH]c3c2)CCO1 (single isomer, unassigned) [Compound 40a]	IC50	0.168 nM
CC(Nc1c(-c2nc3ccc(N4C[C@@H](C)O[C@H](C)C4)cc3[nH]2)c(=O)[nH]c2ccccc12)c1ncccn1 (single isomer, unassigned) [Compound 37a]	IC50	0.326 nM
C[C@H](Nc1c(-c2nc3ccc(N4CCOCC4)cc3[nH]2)c(=O)[nH]c2ccccc12)c1ncccn1 [Compound 2]	IC50	0.213 nM
